Protocol: activity coefficient (dimensionless); of the first substance listed, at infinite dilution; xn = mol fraction of the nth substance listed
Test settings: 338.15 K; 101 kPa; Liquid; Chromatography; x1 = 0
Below, each entry is listed with its recorded activity coefficient.
Readout type: activity coefficient

[[record]]
compound = "c1ccncc1 [pyridine] + COCC[N+]1(C)CCCC1.O=S(=O)([N-]S(=O)(=O)C(F)(F)F)C(F)(F)F"
readout_type = "activity coefficient"
measurement = 0.618

[[record]]
compound = "C1CCCCCC1 [cycloheptane] + COCC[N+]1(C)CCCC1.O=S(=O)([N-]S(=O)(=O)C(F)(F)F)C(F)(F)F"
readout_type = "activity coefficient"
measurement = 13.1

[[record]]
compound = "CCC[N+](=O)[O-] [1-nitropropane] + COCC[N+]1(C)CCCC1.O=S(=O)([N-]S(=O)(=O)C(F)(F)F)C(F)(F)F"
readout_type = "activity coefficient"
measurement = 0.743

[[record]]
compound = "Cc1ccccc1 [toluene] + COCC[N+]1(C)CCCC1.O=S(=O)([N-]S(=O)(=O)C(F)(F)F)C(F)(F)F"
readout_type = "activity coefficient"
measurement = 1.51

[[record]]
compound = "CCCCO [butan-1-ol] + COCC[N+]1(C)CCCC1.O=S(=O)([N-]S(=O)(=O)C(F)(F)F)C(F)(F)F"
readout_type = "activity coefficient"
measurement = 2.35

[[record]]
compound = "C=CCCC [1-pentene] + COCC[N+]1(C)CCCC1.O=S(=O)([N-]S(=O)(=O)C(F)(F)F)C(F)(F)F"
readout_type = "activity coefficient"
measurement = 6.35

[[record]]
compound = "CCCO [propan-1-ol] + COCC[N+]1(C)CCCC1.O=S(=O)([N-]S(=O)(=O)C(F)(F)F)C(F)(F)F"
readout_type = "activity coefficient"
measurement = 1.86

[[record]]
compound = "CCC(C)(C)C [2,2-dimethylbutane] + COCC[N+]1(C)CCCC1.O=S(=O)([N-]S(=O)(=O)C(F)(F)F)C(F)(F)F"
readout_type = "activity coefficient"
measurement = 13.7

[[record]]
compound = "Cc1ccc(C)cc1 [1,4-dimethylbenzene] + COCC[N+]1(C)CCCC1.O=S(=O)([N-]S(=O)(=O)C(F)(F)F)C(F)(F)F"
readout_type = "activity coefficient"
measurement = 2.18

[[record]]
compound = "CCCCCCCCC [nonane] + COCC[N+]1(C)CCCC1.O=S(=O)([N-]S(=O)(=O)C(F)(F)F)C(F)(F)F"
readout_type = "activity coefficient"
measurement = 48.4

[[record]]
compound = "C1CCCC1 [cyclopentane] + COCC[N+]1(C)CCCC1.O=S(=O)([N-]S(=O)(=O)C(F)(F)F)C(F)(F)F"
readout_type = "activity coefficient"
measurement = 6.85

[[record]]
compound = "CC(C)O [propan-2-ol] + COCC[N+]1(C)CCCC1.O=S(=O)([N-]S(=O)(=O)C(F)(F)F)C(F)(F)F"
readout_type = "activity coefficient"
measurement = 1.67

[[record]]
compound = "CCC(C)O (stereo not given) [butan-2-ol] + COCC[N+]1(C)CCCC1.O=S(=O)([N-]S(=O)(=O)C(F)(F)F)C(F)(F)F"
readout_type = "activity coefficient"
measurement = 2

[[record]]
compound = "O [water] + COCC[N+]1(C)CCCC1.O=S(=O)([N-]S(=O)(=O)C(F)(F)F)C(F)(F)F"
readout_type = "activity coefficient"
measurement = 2.51

[[record]]
compound = "C1CCCCC1 [cyclohexane] + COCC[N+]1(C)CCCC1.O=S(=O)([N-]S(=O)(=O)C(F)(F)F)C(F)(F)F"
readout_type = "activity coefficient"
measurement = 9.69


====

Below, each entry is listed with its recorded activity coefficient.
Protocol: activity coefficient (dimensionless); of the first substance listed, at infinite dilution; xn = mol fraction of the nth substance listed
Test settings: 358.15 K; 101 kPa; Liquid; Chromatography; x1 = 0
Readout type: activity coefficient

[[record]]
molecule = "CCC(C)(C)OC [2-methoxy-2-methylbutane] + COCC[N+]1(C)CCCC1.O=S(=O)([N-]S(=O)(=O)C(F)(F)F)C(F)(F)F"
readout_type = "activity coefficient"
measurement = 4.01

[[record]]
molecule = "CCCCCCCC [octane] + COCC[N+]1(C)CCCC1.O=S(=O)([N-]S(=O)(=O)C(F)(F)F)C(F)(F)F"
readout_type = "activity coefficient"
measurement = 29

[[record]]
molecule = "CCCCCC [hexane] + COCC[N+]1(C)CCCC1.O=S(=O)([N-]S(=O)(=O)C(F)(F)F)C(F)(F)F"
readout_type = "activity coefficient"
measurement = 15

[[record]]
molecule = "C=CCCCCCC [oct-1-ene] + COCC[N+]1(C)CCCC1.O=S(=O)([N-]S(=O)(=O)C(F)(F)F)C(F)(F)F"
readout_type = "activity coefficient"
measurement = 16.3

[[record]]
molecule = "CCCC(C)=O [pentan-2-one] + COCC[N+]1(C)CCCC1.O=S(=O)([N-]S(=O)(=O)C(F)(F)F)C(F)(F)F"
readout_type = "activity coefficient"
measurement = 0.89

[[record]]
molecule = "CO [methanol] + COCC[N+]1(C)CCCC1.O=S(=O)([N-]S(=O)(=O)C(F)(F)F)C(F)(F)F"
readout_type = "activity coefficient"
measurement = 1.03

[[record]]
molecule = "C=CCCCCCCCC [1-decene] + COCC[N+]1(C)CCCC1.O=S(=O)([N-]S(=O)(=O)C(F)(F)F)C(F)(F)F"
readout_type = "activity coefficient"
measurement = 31.7

[[record]]
molecule = "CCCC(=O)OC [methyl butanoate] + COCC[N+]1(C)CCCC1.O=S(=O)([N-]S(=O)(=O)C(F)(F)F)C(F)(F)F"
readout_type = "activity coefficient"
measurement = 1.36

[[record]]
molecule = "CCC(=O)OC [methyl propanoate] + COCC[N+]1(C)CCCC1.O=S(=O)([N-]S(=O)(=O)C(F)(F)F)C(F)(F)F"
readout_type = "activity coefficient"
measurement = 0.99

[[record]]
molecule = "CCCCCCCCC [nonane] + COCC[N+]1(C)CCCC1.O=S(=O)([N-]S(=O)(=O)C(F)(F)F)C(F)(F)F"
readout_type = "activity coefficient"
measurement = 41

[[record]]
molecule = "CC(C)=O [acetone] + COCC[N+]1(C)CCCC1.O=S(=O)([N-]S(=O)(=O)C(F)(F)F)C(F)(F)F"
readout_type = "activity coefficient"
measurement = 0.51

[[record]]
molecule = "CCCC=O [butanal] + COCC[N+]1(C)CCCC1.O=S(=O)([N-]S(=O)(=O)C(F)(F)F)C(F)(F)F"
readout_type = "activity coefficient"
measurement = 0.864

[[record]]
molecule = "CC(C)O [propan-2-ol] + COCC[N+]1(C)CCCC1.O=S(=O)([N-]S(=O)(=O)C(F)(F)F)C(F)(F)F"
readout_type = "activity coefficient"
measurement = 1.43

[[record]]
molecule = "O [water] + COCC[N+]1(C)CCCC1.O=S(=O)([N-]S(=O)(=O)C(F)(F)F)C(F)(F)F"
readout_type = "activity coefficient"
measurement = 2.05

[[record]]
molecule = "C=CCCC [1-pentene] + COCC[N+]1(C)CCCC1.O=S(=O)([N-]S(=O)(=O)C(F)(F)F)C(F)(F)F"
readout_type = "activity coefficient"
measurement = 6.07

[[record]]
molecule = "C1CCCCCC1 [cycloheptane] + COCC[N+]1(C)CCCC1.O=S(=O)([N-]S(=O)(=O)C(F)(F)F)C(F)(F)F"
readout_type = "activity coefficient"
measurement = 11.5

[[record]]
molecule = "CCCOCCC [dipropyl ether] + COCC[N+]1(C)CCCC1.O=S(=O)([N-]S(=O)(=O)C(F)(F)F)C(F)(F)F"
readout_type = "activity coefficient"
measurement = 6.47

[[record]]
molecule = "C#CCCCCCC [1-octyne] + COCC[N+]1(C)CCCC1.O=S(=O)([N-]S(=O)(=O)C(F)(F)F)C(F)(F)F"
readout_type = "activity coefficient"
measurement = 6.37

[[record]]
molecule = "CC(C)(C)O [2-methylpropan-2-ol] + COCC[N+]1(C)CCCC1.O=S(=O)([N-]S(=O)(=O)C(F)(F)F)C(F)(F)F"
readout_type = "activity coefficient"
measurement = 1.48

[[record]]
molecule = "C#CCCCCC [1-heptyne] + COCC[N+]1(C)CCCC1.O=S(=O)([N-]S(=O)(=O)C(F)(F)F)C(F)(F)F"
readout_type = "activity coefficient"
measurement = 4.58

[[record]]
molecule = "C1CCCCCCC1 [cyclooctane] + COCC[N+]1(C)CCCC1.O=S(=O)([N-]S(=O)(=O)C(F)(F)F)C(F)(F)F"
readout_type = "activity coefficient"
measurement = 15

[[record]]
molecule = "CC1CCCCC1 [methylcyclohexane] + COCC[N+]1(C)CCCC1.O=S(=O)([N-]S(=O)(=O)C(F)(F)F)C(F)(F)F"
readout_type = "activity coefficient"
measurement = 12

[[record]]
molecule = "C#CCCCC [1-hexyne] + COCC[N+]1(C)CCCC1.O=S(=O)([N-]S(=O)(=O)C(F)(F)F)C(F)(F)F"
readout_type = "activity coefficient"
measurement = 3.28

[[record]]
molecule = "CCc1ccccc1 [ethylbenzene] + COCC[N+]1(C)CCCC1.O=S(=O)([N-]S(=O)(=O)C(F)(F)F)C(F)(F)F"
readout_type = "activity coefficient"
measurement = 2.25

[[record]]
molecule = "CCC(C)(C)C [2,2-dimethylbutane] + COCC[N+]1(C)CCCC1.O=S(=O)([N-]S(=O)(=O)C(F)(F)F)C(F)(F)F"
readout_type = "activity coefficient"
measurement = 12.6

[[record]]
molecule = "CC(C)OC(C)C [diisopropyl ether] + COCC[N+]1(C)CCCC1.O=S(=O)([N-]S(=O)(=O)C(F)(F)F)C(F)(F)F"
readout_type = "activity coefficient"
measurement = 6.31

[[record]]
molecule = "CCC(C)CC [3-methylpentane] + COCC[N+]1(C)CCCC1.O=S(=O)([N-]S(=O)(=O)C(F)(F)F)C(F)(F)F"
readout_type = "activity coefficient"
measurement = 13.5

[[record]]
molecule = "CCOC(C)(C)C [2-ethoxy-2-methylpropane] + COCC[N+]1(C)CCCC1.O=S(=O)([N-]S(=O)(=O)C(F)(F)F)C(F)(F)F"
readout_type = "activity coefficient"
measurement = 5.94

